Assay: Cell growth assay, WST-8 (compounds B1-B126)
Assay type: cell-based
Settings: 96 h; T47D cell line, WST-8, 4 days; read-out: Cell growth inhibition in T47D cell line IC50
Recorded endpoint: IC50

Previously resolved entries follow.
>  <Molecule>
COc1cc(N2CC3(CCC(CN4CCN5c6ccc7c(c6OC[C@H]5C4)CN(C4CCC(=O)NC4=O)C7=O)CC3)C2)ccc1[C@@H]1c2ccc3[nH]ncc3c2C[C@@H](C)N1CC(F)F (stereo partly drawn) [Compound B84]

>  <IC50>
> 10 nM

$$$$
>  <Molecule>
COc1cc(N2CCC3(CC2)CC(CN2CCN4c5cc6c(cc5OC[C@@H]4C2)C(=O)N(C2CCC(=O)NC2=O)C6)C3)ccc1[C@@H]1c2ccc3[nH]ncc3c2C[C@@H](C)N1CC(F)F (stereo partly drawn) [Compound B54]

>  <IC50>
1 to 10 nM

$$$$

Let us move to another entry and its IC50.
Find the measured IC50 of C[C@@H]1Cc2c(ccc3[nH]ncc23)[C@@H](c2c(F)cc(N3CCC4(CCN(C(=O)CN5Cc6cc7c(cc6C5)C(=O)N(C5CCC(=O)NC5=O)C7=O)CC4)CC3)cc2F)N1CC(F)F (stereo partly drawn) [Compound B15] and report it. < 1 nM

---

Target: CRBN/DDB1 (Homo sapiens, UniProt Q96SW2)
Details: HTRF, Cy5-labeled Thalidomide probe
pIC50: −log10 of the molar value.
Recorded endpoint: pIC50

Previously resolved entries follow.
>  <Compound>
COc1cc(N2CCC(CN3CCN4c5ccc6c(c5OC[C@H]4C3)CN(C3CCC(=O)NC3=O)C6=O)CC2)ccc1[C@@H]1c2ccc3[nH]ncc3c2C[C@@H](C)N1CC(F)F (stereo partly drawn)

>  <Recorded value>
6.30 to 7.30

$$$$
>  <Compound>
COc1cc(N2CCC(CN3CCN4c5ccc6c(c5OCC4C3)CN(C3CCC(=O)NC3=O)C6=O)CC2)ccc1C1c2ccc3[nH]ncc3c2CC(C)N1CC(F)F (stereo in doubt)

>  <Recorded value>
5.30 to 6.30

$$$$

Find the measured pIC50 of `C[C@@H]1Cc2c(ccc3[nH]ncc23)[C@@H](c2ccc(N3CCC4(CC3)CC(CN3CCC5(CC3)COc3cc6c(cc35)CN([C@H]3CCC(=O)NC3=O)C6=O)C4)cn2)N1CC1(F)CC1` and report it. 6.30 to 7.30

---

Target: ER (Homo sapiens, UniProt P03372)
Construct: endogenous in cells; probably T47D or MCF-7
Assay: In-cell western blot analysis, relative ER percentage (compounds B1-B126)
Type: cell-based
Settings: ER degradation, 16 hours, read-out: ICW DC50
Recorded endpoint: DC50

Previously resolved entries follow.
>  <Molecule>
C[C@@H]1Cc2c(ccc3[nH]ncc23)[C@@H](c2c(F)cc(C3=CCC(C(=O)N4CCC(N5Cc6cc7c(cc6C5)C(=O)N(C5CCC(=O)NC5=O)C7=O)CC4)CC3)cc2F)N1CC(F)F (stereo partly drawn)

>  <Experimental target>
ER (Homo sapiens, UniProt P03372)

>  <DC50>
> 100 nM

$$$$
>  <Molecule>
C[C@@H]1Cc2c(ccc3[nH]ncc23)[C@@H](c2ccc(N3CC4(CCC(CN5CCN6c7c(ccc8c7CN(C7CCC(=O)NC7=O)C8=O)OC[C@@H]6C5)CC4)C3)cn2)N1CC(F)(F)F (stereo partly drawn)

>  <Experimental target>
ER (Homo sapiens, UniProt P03372)

>  <DC50>
> 100 nM

$$$$
>  <Molecule>
C[C@@H]1Cc2c(ccc3[nH]ncc23)[C@@H](c2c(F)cc(N3CCC(CN4CCN5c6ccc7c(c6OCC5C4)CN(C4CCC(=O)NC4=O)C7=O)CC3)cc2F)N1CC(F)F (mixture of isomers)

>  <Experimental target>
ER (Homo sapiens, UniProt P03372)

>  <DC50>
10 to 100 nM

$$$$
>  <Molecule>
C[C@@H]1Cc2c(ccc3[nH]ncc23)[C@@H](c2c(F)cc(C3CCN(C(=O)CN4CCN5c6cc7c(cc6OC[C@@H]5C4)C(=O)N(C4CCC(=O)NC4=O)C7)CC3)cc2F)N1CC(F)F (stereo partly drawn)

>  <Experimental target>
ER (Homo sapiens, UniProt P03372)

>  <DC50>
10 to 100 nM

$$$$
>  <Molecule>
C[C@@H]1Cc2c(ccc3[nH]ncc23)[C@@H](c2ccc(N3CC4(CCC(CN5CCN6c7ccc8c(c7OC[C@H]6C5)CN(C5CCC(=O)NC5=O)C8=O)CC4)C3)cn2)N1CC(F)(F)F (stereo partly drawn)

>  <Experimental target>
ER (Homo sapiens, UniProt P03372)

>  <DC50>
< 10 nM

$$$$

Enter recorded DC50 with ER (Homo sapiens, UniProt P03372) for COc1cc(N2CCC3(CC2)CC(CN2CCN4c5ccc6c(c5OC[C@H]4C2)CN([C@H]2CCC(=O)NC2=O)C6=O)CO3)ccc1[C@@H]1c2ccc3[nH]ncc3c2C[C@@H](C)N1CC(F)F (stereo partly drawn) here. < 10 nM

Enter recorded DC50 with ER (Homo sapiens, UniProt P03372) for C[C@@H]1Cc2c(ccc3[nH]ncc23)[C@@H](c2c(F)cc(N3CCC(CN4CCN5c6cc7c(cc6N(C)C[C@@H]5C4)C(=O)N(C4CCC(=O)NC4=O)C7)CC3)cc2F)N1CC(F)F (stereo partly drawn) here. < 10 nM

Enter recorded DC50 with ER (Homo sapiens, UniProt P03372) for C[C@@H]1Cc2c(ccc3[nH]ncc23)[C@@H](c2cnc(N3CCC4(CCC(CN5CCN6c7ccc8c(c7OC[C@H]6C5)CN([C@H]5CCC(=O)NC5=O)C8=O)CO4)CC3)nc2)N1CC(F)(F)F (stereo partly drawn) here. < 10 nM

Enter recorded DC50 with ER (Homo sapiens, UniProt P03372) for `C[C@@H]1Cc2c(ccc3[nH]ncc23)[C@@H](c2ccc(N3CCC4(CC3)CC(CN3CCN5c6ccc(C(=O)N[C@H]7CCC(=O)NC7=O)nc6OC[C@H]5C3)C4)cn2)N1CC(F)(F)F` here. > 100 nM
